Reference source for all entries: the supplement of paper PMC10567573

B1: FBF1 (parent)
chain: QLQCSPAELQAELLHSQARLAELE

Variants of: B1
test_method_notes: protein stability index of a GFP-peptide fusion (GPS, HEK-293T) (PSI 1-6); higher = more stable;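 further: lentivirally expressed fusions sorted by FACS into six bins by GFP to DsRed ratio, PSI derived from sequencing read proportions per bin multiplied by bin number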
run_conditions: c terminus: a fixed tail appended
Please note: 1 applies when protein stability index is 3 or greater, and 0 applies otherwise.

variant_label=A11F class_label=0
variant_label=Q3T class_label=1
variant_label=C4E class_label=1
variant_label=Q1P class_label=1
variant_label=A11N class_label=1
variant_label=Q1T class_label=1
variant_label=S5F class_label=0
variant_label=E12G class_label=1
variant_label=E8F class_label=0
variant_label=Q1E class_label=1
variant_label=R19D class_label=1
variant_label=L20R class_label=1
variant_label=Q10P class_label=1
variant_label=H15L class_label=0
variant_label=E22D class_label=0
variant_label=L2R class_label=0
variant_label=Q3S class_label=1
variant_label=Q3D class_label=1
variant_label=L2G class_label=1
variant_label=E22I class_label=0
variant_label=C4K class_label=1
variant_label=E12L class_label=0
variant_label=A11W class_label=0
variant_label=L20V class_label=1
variant_label=A21E class_label=0
variant_label=E22Q class_label=0
variant_label=A18Q class_label=1
variant_label=Q1I class_label=0
variant_label=E8H class_label=0
variant_label=Q10W class_label=0
variant_label=L9C class_label=1
variant_label=E12D class_label=1
variant_label=E24A class_label=1
variant_label=A21W class_label=0
variant_label=R19I class_label=0
variant_label=L13K class_label=1
variant_label=Q17K class_label=1
variant_label=L23C class_label=1
variant_label=L23M class_label=1
variant_label=A21P class_label=1
